# experimental_system: Cellular ERK5 Activity (Homo sapiens)
# Construct: MEF2-response-element luciferase reporter (pGreenFire1)
# Sequence (Q13164 whole entry): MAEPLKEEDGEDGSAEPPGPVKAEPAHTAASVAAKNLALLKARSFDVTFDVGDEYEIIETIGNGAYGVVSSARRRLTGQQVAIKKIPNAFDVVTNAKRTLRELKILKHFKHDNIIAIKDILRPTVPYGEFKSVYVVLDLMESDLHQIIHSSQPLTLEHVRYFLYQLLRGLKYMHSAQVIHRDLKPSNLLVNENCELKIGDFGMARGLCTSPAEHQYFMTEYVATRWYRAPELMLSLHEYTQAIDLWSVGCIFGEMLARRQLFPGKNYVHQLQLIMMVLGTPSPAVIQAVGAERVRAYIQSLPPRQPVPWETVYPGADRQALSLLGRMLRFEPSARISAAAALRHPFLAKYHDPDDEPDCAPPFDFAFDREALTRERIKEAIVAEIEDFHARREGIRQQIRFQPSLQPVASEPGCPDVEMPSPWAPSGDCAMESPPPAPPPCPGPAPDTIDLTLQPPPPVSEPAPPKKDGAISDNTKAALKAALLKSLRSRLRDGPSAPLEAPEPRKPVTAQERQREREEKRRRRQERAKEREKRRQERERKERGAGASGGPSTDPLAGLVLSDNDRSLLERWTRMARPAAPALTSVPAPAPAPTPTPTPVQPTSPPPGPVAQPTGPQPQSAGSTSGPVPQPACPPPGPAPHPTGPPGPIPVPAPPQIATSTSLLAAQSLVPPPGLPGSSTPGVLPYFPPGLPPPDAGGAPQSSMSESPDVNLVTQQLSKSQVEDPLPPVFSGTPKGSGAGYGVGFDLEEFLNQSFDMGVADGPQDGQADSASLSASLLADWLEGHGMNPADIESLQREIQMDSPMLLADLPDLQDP
# experiment_description: Inhibition of Cellular ERK5 Activity (cell-based assay, MEF2 luciferase reporter in SN12C cells)
# measurement_setup: renal cancer cell line SN12C, doxycycline-induced MEK5DD, 0.3-10000 nM, mean where repeated
parameter: IC50 (nM)

In the examples that follow, each entry is paired with its recorded IC50.
• O=C(c1ccc(OC(F)(F)F)cc1)N1CCC(c2c[nH]c3ncc(NC4CCOCC4)nc23)CC1 [Example 38] = 166
• Nc1cc(OC(F)(F)F)ccc1C(=O)N1CCC(c2c[nH]c3ncc(O[C@H]4CCOC4)nc23)CC1 [Example 29] = 215
• Nc1cc(OC(F)(F)F)ccc1C(=O)N1CCC(c2c[nH]c3ncc(C4CCOCC4)nc23)C1 (racemic) [Example 24] = 261
• O=C(c1ccc(OC2CC2)cc1)N1CCC(c2c[nH]c3ncc(C4CCOCC4)nc23)CC1 [Example 21] = 352
• Nc1cc(OC(F)(F)F)ccc1C(=O)N1CCC(c2c[nH]c3ncc(NC4CCOCC4)nc23)CC1 [Example 39] = 37

1. Nc1cc(OC(F)(F)F)ccc1C(=O)N1CCC(c2c[nH]c3ncc(C4CCOC4)nc23)CC1 (single isomer, unassigned) [Example 13]
2. O=C(c1ccc(OC(F)(F)F)cc1)N1CCC(c2c[nH]c3ncc(C4CCCCC4)nc23)CC1 [Example 8]
3. Nc1cc(OC(F)(F)F)ccc1C(=O)N1CCC(c2c[nH]c3ncc(C4CCOCC4)nc23)CC1 [Example 2]
4. O=C(c1ccc(OC(F)(F)F)cc1)N1CCC(c2c[nH]c3ncc(C4CCN(C5CC5)CC4)nc23)CC1 [Example 11]
5. Nc1cc(OC(F)(F)F)ccc1C(=O)N1CCC(c2c[nH]c3ncc(NC4COC4)nc23)CC1 [Example 27]
Request: Hey, can you sort those molecules up there by IC50, smallest first? Your answer should be the labels, listed in the requested order.
Response: 3, 1, 4, 2, 5

I. CN1CCC(c2cnc3[nH]cc(C4CCN(C(=O)c5ccc(OC(F)(F)F)cc5)CC4)c3n2)CC1 [Example 4]
II. O=C(c1ccc(OC(F)(F)F)cc1)N1CCC(c2c[nH]c3ncc(N4CCOCC4)nc23)CC1 [Example 40]
Request: Which entry shows the lesser value of IC50 here, I or II ? Please identify the chosen entry by its label.
Response: I

====

# experimental_system: activated catalytic domain of protein ERK5 (Homo sapiens, UniProt Q13164)
# Construct: purchased CarnaBiosciences #04-146
# Sequence (Q13164 55-347 limits assumed): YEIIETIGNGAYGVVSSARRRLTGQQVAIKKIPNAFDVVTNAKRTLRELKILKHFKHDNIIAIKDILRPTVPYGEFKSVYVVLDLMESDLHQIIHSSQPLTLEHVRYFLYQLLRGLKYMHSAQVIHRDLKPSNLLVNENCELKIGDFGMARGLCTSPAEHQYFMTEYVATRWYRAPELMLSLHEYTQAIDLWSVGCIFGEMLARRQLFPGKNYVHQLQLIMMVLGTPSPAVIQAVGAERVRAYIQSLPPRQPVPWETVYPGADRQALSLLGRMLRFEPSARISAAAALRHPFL
# experiment_description: Cell-Free Assay of ERK5 Inhibition (Time-Resolved Forster Resonance Energy Transfer)
# Assay type: biochemical
# measurement_setup: ERK5 4 nM, 1 mM ATP, 1 μM biotinylated 4EBP1 peptide, 30 min at 37° C.; TR-FRET; mean where repeated
parameter: IC50 (nM)

• Nc1cc(OC(F)(F)F)ccc1C(=O)N1CCC(c2c[nH]c3ncc(O[C@H]4CCOC4)nc23)CC1 = 399

1. Nc1cc(OC(F)(F)F)ccc1C(=O)N1CCC(c2c[nH]c3ncc(C4CCOC4)nc23)CC1 (single isomer, unassigned) [Example 14]
2. Nc1cc(OC(F)(F)F)ccc1C(=O)N1CCC(c2c[nH]c3ncc(O[C@@H]4CCOC4)nc23)CC1
Request: Hey, between 1 and 2 which has a smaller measured IC50? Pick one and reply with its label.
Response: 1

====

# experimental_system: activated catalytic domain of protein ERK5 (Homo sapiens, UniProt Q13164)
# Construct: purchased CarnaBiosciences #04-146
# experiment_description: Cell-Free Assay of ERK5 Inhibition (Time-Resolved Forster Resonance Energy Transfer)
# Assay type: biochemical
# measurement_setup: ERK5 4 nM, 1 mM ATP, 1 μM biotinylated 4EBP1 peptide, 30 min at 37° C.; TR-FRET; mean where repeated
parameter: IC50 (nM)

Some compounds with recorded IC50:
* Nc1cc(S(F)(F)(F)(F)F)ccc1C(=O)N1CCC(c2c[nH]c3ncc(C4CCOCC4)nc23)CC1 | 330
* Nc1cc(S(F)(F)(F)(F)F)ccc1C(=O)N1CCC(c2c[nH]c3ncc(C4CCOCC4)nc23)C1 (racemic) | 9720
* CN1CCN(c2cnc3[nH]cc(C4CCN(C(=O)c5ccc(OC(F)(F)F)cc5)CC4)c3n2)CC1 | 189
* O=C(c1ccc(OC(F)(F)F)cc1)N1CCC(c2c[nH]c3ncc(NC4CCOC4)nc23)CC1 (racemic) [Example 36] | 291
* CN1CCC(c2cnc3[nH]cc(C4CCN(C(=O)c5ccc(OC(F)(F)F)cc5N)CC4)c3n2)CC1 | 17

A. CN1CCC(c2cnc3[nH]cc(C4CCN(C(=O)c5ccc(S(F)(F)(F)(F)F)cc5)CC4)c3n2)CC1
B. COCCCc1cnc2[nH]cc(C3CCN(C(=O)c4ccc(OC(F)(F)F)cc4)CC3)c2n1
Request: Among A and B , whose measured IC50 is the smaller figure? Answer format: the label of the selected item.
Response: A
(A: 98 nM, B: 403 nM)
